Angiotensin-converting enzyme (Homo sapiens) data, read-out IC50
Non-standard residues stand in square brackets, D forms with d. Residues, ends and D or L forms follow the SMILES beside them. Nle = CCCC[C@H](N)C(=O)O

MOLECULE	SCALE UNIT	IC50
CC[C@H](C)[C@H](N)C(=O)N[C@@H](Cc1ccc(O)cc1)C(=O)O (H-Ile-Tyr-OH)	µM	3.7
CC(C)C[C@H](N)C(=O)N[C@@H](C)C(=O)N1CCC[C@H]1C(=O)O (H-Leu-Ala-Pro-OH)	µM	2.3
CCCC[C@H](N)C(=O)N[C@@H](C)C(=O)N1CCC[C@H]1C(=O)O (H-[Nle]-Ala-Pro-OH)	µM	0.7
N[C@@H](Cc1ccccc1)C(=O)N1CCC[C@H]1C(=O)N1CCC[C@H]1C(=O)O (H-Phe-Pro-Pro-OH)	µM	78
C[C@H](NC(=O)[C@@H](N)CCCNC(=N)N)C(=O)N1CCC[C@H]1C(=O)O (H-Arg-Ala-Pro-OH)	µM	16
C[C@H](NC(=O)[C@@H](N)Cc1ccccc1)C(=O)N1CCC[C@H]1C(=O)O (H-Phe-Ala-Pro-OH)	µM	4.2

Attribution: ChEMBL document CHEMBL1127412
